- Test system: MDA-MB-231
- Experiment Description: NCI tumour cell line growth inhibition, 48 h
The source made the active and inactive calls. Rule as the data show it: active = GI50 up to about 1.1 µM and inactive = higher.
Returns: one label drawn from 1.0 for active, 0.0 for inactive

>  <Compound>
COc1ccc(OC/C(N)=N/NC(=O)c2ccncc2)cc1

>  <Target Or Test System>
MDA-MB-231

>  <Class Label>
0.0

$$$$
>  <Compound>
Brc1ccc2c(c1)-c1nc3nc4c(cc3cc1CC2)CCc1ccc(Br)cc1-4

>  <Target Or Test System>
MDA-MB-231

>  <Class Label>
0.0

$$$$
>  <Compound>
O=C(/C=C/c1ccc(O)c(O)c1)OCCCOC(=O)/C=C/c1ccc(O)c(O)c1

>  <Target Or Test System>
MDA-MB-231

>  <Class Label>
0.0

$$$$

Field: outcome | Entry: CCOC(=O)/C=C(\C(=O)OCC)n1cc(Cl)c(=O)n(CC(=O)OCC)c1=O
0.0

Field: outcome | Entry: C=CS(=O)(=O)CCN1CC1
0.0

Field: outcome | Entry: O=C1NC(N2CCCC(CO)C2)=N/C1=C\c1ccc(Cl)cc1 (stereo not drawn)
0.0

Field: outcome | Entry: CCCCCCCCCCCC1=NCCN1
0.0
